Reference source for all entries: patent US20230233569A1

# target: KRAS G12V (Homo sapiens, UniProt P01116+P62937, G12V)
# Sequence (P01116 1-169 isoform P01116-2 G12V limits assumed): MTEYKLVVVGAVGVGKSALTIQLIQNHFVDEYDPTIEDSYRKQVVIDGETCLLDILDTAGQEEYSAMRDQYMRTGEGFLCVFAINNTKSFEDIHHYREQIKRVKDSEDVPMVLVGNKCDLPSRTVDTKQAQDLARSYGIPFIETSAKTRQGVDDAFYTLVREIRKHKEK
# Sequence (P62937 whole entry): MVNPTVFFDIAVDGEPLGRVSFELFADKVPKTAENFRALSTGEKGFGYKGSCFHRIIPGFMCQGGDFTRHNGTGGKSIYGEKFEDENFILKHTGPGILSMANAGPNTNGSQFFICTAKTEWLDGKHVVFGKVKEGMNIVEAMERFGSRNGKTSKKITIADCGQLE
# experiment_notes: Disruption of BRAF RBD interaction with Ras (FRET / MOA assay, with Cyclophilin A)
# Format: biochemical
# condition: KRAS G12V; read-out: KRAS G12V FRET data IC50
pIC50: −log10 of the molar value.
Recorded pIC50 values for a group of compounds are listed next.

Check out these entries, answers already filled in.
Query CCn1c(-c2cnccc2COC)c2c3cc(ccc31)-c1cc(O)cc(c1)C[C@H](NC(=O)[C@H](C(C)C)N(C)C(=O)OC1CNC1)C(=O)N1CCC[C@H](N1)C(=O)OCC(C)(C)C2 [Example A81] yields pIC50 of 5.00 to 6.00

Query CCn1c(-c2cccnc2[C@H](C)OC)c2c3cc(ccc31)-c1nc(cs1)C[C@H](NC(=O)[C@H](C(C)C)N(C)C(C)=O)C(=O)N1CCC[C@H](N1)C(=O)OCC(C)(C)C2 [Example A152] yields pIC50 of 5.00 to 6.00

---
Query CCn1c(-c2cccnc2[C@H](C)OC)c2c3cc(ccc31)-c1csc(n1)C[C@H](NC(=O)[C@H](C(C)C)N(C)C(=O)N1CCOCC1)C(=O)N1CCC[C@H](N1)C(=O)OCC(C)(C)C2 (atropisomer, axis not shown) [Example A372] yields pIC50 of 6.00 to 7.00

Query C=CC(=O)N1CC[C@H](C(=O)N(C)[C@H](C(=O)N[C@H]2Cc3cc(O)cc(c3)-c3ccc4c(c3)c(c(-c3cc(F)cnc3COC)n4CC)CC(C)(C)COC(=O)[C@@H]3CCCN(N3)C2=O)C(C)C)C1 [Example A082] yields pIC50 of 6.00 to 7.00

Query C=CC(=O)N1CCO[C@H]2CN(C(=O)N(C)[C@H](C(=O)N[C@H]3CN4CCC=C(C4)c4ccc5c(c4)c(c(-c4cccnc4[C@H](C)OC)n5CC)CC(C)(C)COC(=O)[C@@H]4CCCN(N4)C3=O)C(C)C)C[C@H]21 [Example A552] yields pIC50 of 5.00 to 6.00

Query CCn1c(-c2cccnc2[C@H](C)OC)c2c3cc(ccc31)-c1csc(n1)C[C@H](NC(=O)[C@H](C(C)C)N(C)C(=O)N1C[C@H]3CN(C)C[C@H]3C1)C(=O)N1CCC[C@H](N1)C(=O)OCC(C)(C)C2 [Example A313] yields pIC50 of 6.00 to 7.00

Query CCn1c(-c2cccnc2[C@H](C)OC)c2c3cc(ccc31)-c1cc(O)cc(c1)C[C@H](NC(=O)[C@H](C(C)C)N(C)C(=O)[C@H]1CCN(C(=O)CNC)C1)C(=O)N1CCC[C@H](N1)C(=O)OCC(C)(C)C2 (atropisomer, axis not shown) [Example A120] yields pIC50 of 6.00 to 7.00

Query CCn1c(-c2cccnc2[C@H](C)OC)c2c3cc(ccc31)-c1cc(O)cc(c1)C[C@H](NC(=O)[C@H](C(C)C)N(C)C(=O)[C@H]1CCCNC1)C(=O)N1CCC[C@H](N1)C(=O)OCC(C)(C)C2 [Example A243] yields pIC50 of 6.00 to 7.00

Query C=CC(=O)N1CC[C@H](C(=O)N(C)[C@H](C(=O)N[C@H]2Cc3cc(O)cc(c3)-c3ccc4c(c3)c(c(-c3cccnc3)n4CC)CC(C)(C)COC(=O)[C@@H]3CCCN(N3)C2=O)C(C)C)C1 [Example A045] yields pIC50 of 5.00 to 6.00

Query CCn1c(-c2cccnc2[C@H](C)OC)c2c3cc(ccc31)-c1cc(O)cc(c1)C[C@H](NC(=O)[C@H](C(C)C)N(C)C(=O)C1COC1)C(=O)N1CCC[C@H](N1)C(=O)OCC(C)(C)C2 [Example A18] yields pIC50 of 6.00 to 7.00

Query CCn1c(-c2cccnc2[C@H](C)OC)c2c3cc(ccc31)-c1csc(n1)C[C@H](NC(=O)[C@H](C(C)C)N(C)C(=O)N1CCC(C(=O)C(F)(F)F)CC1)C(=O)N1CCC[C@H](N1)C(=O)OCC(C)(C)C2 [Example A422] yields pIC50 of 7.00 to 8.00

Query CCn1c(-c2cccnc2[C@H](C)OC)c2c3cc(ccc31)-c1cc(O)cc(c1)C[C@H](NC(=O)[C@H](C(C)C)N(C)C(=O)C1(N)CC1)C(=O)N1CCC[C@H](N1)C(=O)OCC(C)(C)C2 [Example A168] yields pIC50 of 6.00 to 7.00

Query CCn1c(-c2cccnc2[C@H](C)OC)c2c3cc(ccc31)-c1csc(n1)C[C@H](NC(=O)[C@H](C(C)C)N(C)C(=O)N1CC([C@@H](C)CO)C1)C(=O)N1CCC[C@H](N1)C(=O)OCC(C)(C)C2 (single isomer, unassigned) [Example A487] yields pIC50 of 7.00 to 8.00

Query C=CC(=O)N1CCN(C(=O)N(C)[C@H](C(=O)N[C@H]2Cc3cc(O)cc(c3)-c3ccc4c(c3)c(c(-c3ccccc3CCOC)n4CC)CC(C)(C)COC(=O)[C@@H]3CCCN(N3)C2=O)C(C)C)CC1 [Example A018] yields pIC50 of 5.00 to 6.00

Query CCn1c(-c2cccnc2[C@H](C)OC)c2c3cc(ccc31)-c1cc(O)cc(c1)C[C@H](NC(=O)[C@H](C(C)C)N(C)C(=O)[C@H]1CCN(C(=O)CN)C1)C(=O)N1CCC[C@H](N1)C(=O)OCC(C)(C)C2 [Example A1] yields pIC50 of 7.00 to 8.00

Query C=CC(=O)N1CCCN(C(=O)N(C)[C@H](C(=O)N[C@H]2Cc3cc(O)cc(c3)-c3ccc4c(c3)c(c(-c3ccccc3CCOC)n4CC)CC(C)(C)COC(=O)[C@@H]3CCCN(N3)C2=O)C(C)C)CC1 [Example A013] yields pIC50 of 5.00 to 6.00

Query CCn1c(-c2cccnc2[C@H](C)OC)c2c3cc(ccc31)-c1csc(n1)C[C@H](NC(=O)[C@H](C(C)C)N(C)C(=O)N1CC[C@@H](N(C)C)C1)C(=O)N1CCC[C@H](N1)C(=O)OCC(C)(C)C2 (atropisomer, axis not shown) [Example A566] yields pIC50 of 6.00 to 7.00
